B1: TPR 5TU (parent)
chain: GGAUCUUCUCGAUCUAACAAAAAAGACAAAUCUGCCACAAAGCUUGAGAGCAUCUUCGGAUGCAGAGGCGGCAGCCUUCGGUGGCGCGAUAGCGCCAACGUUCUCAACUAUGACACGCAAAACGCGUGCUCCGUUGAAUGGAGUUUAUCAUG

# Variants of: B1
# assay method text: polymerase ribozyme fitness, log enrichment relative to wild type (log ratio); higher = more active; in vitro selection for triplet polymerase activity
Fewer inactive variants are shown than the library holds.
Lab note: compare polymerase ribozyme fitness (log ratio) against -2. Equal or greater, write criterion met. Smaller, write criterion not met.

mutation annotation | label
C69U G70A C99A G100A | criterion not met
G11C A40C G42A G58U A60U C85G A89U C93G | criterion not met
C36A C93U G100U | criterion not met
C38U A39C A60U | criterion not met
C8G U13C A17U A29U C38U U44A G84U C87G G92A G140A | criterion not met
A22U C32G U134C | criterion not met
A40U C114U | criterion not met
U45A C85A C87G C114A A137C | criterion not met
A17C A19C A73G C96U C123U C125G | criterion not met
G71A C99U | criterion not met
U13A U55G C85U A121G | criterion met
A40G C149A | criterion not met
C5G G50U C57U G92C A120G | criterion not met
C5G A41G C85U C95U A122U C132A | criterion not met
G50A C75U C76U C114G G152U | criterion not met
A47U U53A | criterion met
U13A G34U G94A U102G | criterion not met
C27G C95A G141C | criterion not met
C14G A24C | criterion not met
C5U U82A C85A C99A U101G G140C | criterion not met
G58U G141C | criterion met
C32A A41C G94U C103A C118U | criterion not met
U55A U78G G84U C87G C118U | criterion not met
G86A A122G | criterion met
A17U G83U | criterion met
A28C A60G C69U G74A U135G A138U G141U | criterion not met
A3C C87G | criterion not met
C35U C75G U127C | criterion not met
G25C A52C U56A C85U G124C | criterion not met
U56A A66G C95U C99U A120G | criterion not met
A47U G94A U134G | criterion met
U33C A49G U77G U130A G133U U135A | criterion not met
A20U A39U C51G A66C C93G U134A | criterion not met
A37U C96U G126U | criterion not met
G25A U82C C105G A121U | criterion not met
A19G A39U U55G A121C | criterion not met
C5U U7A G88U U148C A150C | criterion not met
U33A G46U C75A G140C | criterion not met
C8A C14U C54A C99A | criterion not met
U109G A142C | criterion not met
U7A A28U G46C G50A C95G C103G C129A U144C | criterion not met
U56A A64U | criterion not met
U55A C75G U77G A107U | criterion not met
A47U C54U C93U | criterion not met
A41C A91C C118A C125A A150U | criterion not met
U45G G128U | criterion not met
A37U U77G C96A A106G | criterion not met
U33G G117A U134C | criterion not met
C57G G58A G86U | criterion met
A64U G92A C95A U101C C105U C123A G124C U145G U148G | criterion not met
C85U G136U | criterion met
A24U C38U | criterion met
G50C G59C C95G | criterion not met
C8A A17G U55A C93A G126U G140A | criterion not met
U15A A26C | criterion met
A73C G86C U104C | criterion not met
A16U A17C U44C U56A C76U G88U C114A | criterion not met
A26U C85U | criterion met
A28G C43U A113U G117A A138G | criterion not met
C5U A16C C51U | criterion met
G83C G133A | criterion not met
G67A A98U U139C U148A | criterion not met
G11C C51U C85U G140C | criterion not met
A52U A73U G92U | criterion not met
C131G | criterion not met
A19C U55A A91G | criterion not met
A17G A47C C87A G88C A91U U111A | criterion not met
C32G U55A | criterion not met
C95U C99G U104G A110G C116A A142U | criterion not met
A73G A89U | criterion met
A17U C32G C57A U139A | criterion not met
C72U G83A C93U U111C A120U G143U | criterion not met
C10U A19U A23U C57U G58C C75U U78G C95U C105U | criterion not met
A22G A28C U33G C93A G94C C95U A121U | criterion not met
A23U G42C C75U U82G G84U C96A | criterion not met
G59A G84U G92C C95G G124C | criterion not met
U56A C103A A110G U144G | criterion not met
A16G A20U C99U U102G | criterion not met
C18U C85G | criterion not met
A12G C85U C118G C125A | criterion met
G88A U144G | criterion not met
A91U C114U U148G | criterion not met
A12U U53A U56A A66C A113C | criterion not met
A29G G86U G143A | criterion not met
G42C U55A G70C C96U | criterion not met
C99A U148G | criterion not met
A19C U45A G59U U148A C149G | criterion not met
A17C A19U G58A A97G U102G A119G | criterion not met
C18U C96U | criterion met
G48A G136U | criterion not met
A73G G84U | criterion met
